test: Bioavailability in mouse; assay type: ADME, organism-based; settings: in vivo, dose 20 mg/kg
assay_endpoint: bioavailability

[[record]]
given_smiles = "Cc1c(Cc2ccccc2)c(-c2cc(Cl)nc(N)n2)nn1C"
value_observed = "59%"


====

assay: Oral bioavailability in mouse; assay type: ADME, organism-based; settings: in vivo
assay_endpoint: bioavailability

[[record]]
given_smiles = "Nc1nc(Cl)cc(N(Cc2cccs2)C2CC2)n1"
value_observed = "< 5%"


====

assay: Cmax in CD1 mouse at 20 mg/kg, ip measured up to 24 hrs; assay type: ADME, organism-based; parameters: route intraperitoneal, dose 20 mg/kg, time <=24; conditions: in vivo
assay_endpoint: Cmax

[[record]]
given_smiles = "Cc1c(Cc2ccccc2)c(-c2cc(Cl)nc(N)n2)nn1C"
value_observed = "45 µM"


====

assay: Cmax in CD1 mouse at 20 mg/kg, po measured up to 24 hrs; assay type: ADME, organism-based; parameters: route oral, dose 20 mg/kg, time <=24; settings: in vivo
assay_endpoint: Cmax

[[record]]
given_smiles = "Cc1c(Cc2ccccc2)c(-c2cc(Cl)nc(N)n2)nn1C"
value_observed = "15.5 µM"


====

assay: Octanol-water partition coefficient, logD of the compound at pH 7.4 by HPLC analysis; format: physicochemical
Readings of logD for the listed compounds
assay_endpoint: logD

[[record]]
given_smiles = "Cn1cc(Cc2cccs2)c(-c2cc(Cl)nc(N)n2)n1"
value_observed = 2.5

[[record]]
given_smiles = "Cc1c(Cc2cccs2)c(-c2cc(Cl)nc(N)n2)nn1C"
value_observed = 2.7

[[record]]
given_smiles = "Cc1c(Cc2ccccc2)c(-c2cc(Cl)nc(N)n2)nn1C"
value_observed = 2.9

[[record]]
given_smiles = "Cn1cc(Cc2cccc(F)c2)c(-c2cc(Cl)nc(N)n2)n1"
value_observed = 2.8


====

assay: Permeability of the compound in PRISMA HT buffer at pH 7.4 at 10 umol/L incubated for 3 hrs bt PAMPA based LC/MS/MS analysis; type: ADME; settings: dose 10 µmol/L, read-out: permeability
Readings of Papp at 3 h, 10 µM for the listed compounds
assay_endpoint: Papp at 3 h, 10 µM (×10⁻⁶ cm/s)

[[record]]
given_smiles = "Cn1cc(Cc2cccs2)c(-c2cc(Cl)nc(N)n2)n1"
assay_endpoint = "Papp at 3 h, 10 µM"
value_observed = 25.8

[[record]]
given_smiles = "Cc1c(Cc2ccccc2)c(-c2cc(Cl)nc(N)n2)nn1C"
assay_endpoint = "Papp at 3 h, 10 µM"
value_observed = 27.4

[[record]]
given_smiles = "Cn1cc(Cc2cccc(F)c2)c(-c2cc(Cl)nc(N)n2)n1"
assay_endpoint = "Papp at 3 h, 10 µM"
value_observed = 25.7

[[record]]
given_smiles = "Cc1c(Cc2cccs2)c(-c2cc(Cl)nc(N)n2)nn1C"
assay_endpoint = "Papp at 3 h, 10 µM"
value_observed = 28


====

assay: AUC in CD1 mouse at 20 mg/kg, po measured up to 24 hrs; type: ADME, organism-based; set-up: route oral, dose 20 mg/kg, time <=24; settings: in vivo
assay_endpoint: AUC at 24 h (µM·h)

[[record]]
given_smiles = "Cc1c(Cc2ccccc2)c(-c2cc(Cl)nc(N)n2)nn1C"
assay_endpoint = "AUC at 24 h"
display_unit = "µM·h"
value_observed = 94

